Test: Oral dose PK of NPT2042 in dog (AUC for absolute bioavailability)
Format: in vivo
Conditions: dog, in vivo, po, 30 mg/kg, NPT2042, dog, oral 30 mg/kg; animals D0001, D0601, Mean
RESULT_TYPE: AUC(0-t) (ng·h/mL)

INSERT INTO assay_data (compound_structure_string, endpoint_unit, observed_result) VALUES
  ('CCCCNc1cc(C(=O)N(Cc2ccccc2)Cc2ccccc2)cc(S(N)(=O)=O)c1Oc1ccccc1', 'ng·h/mL', 1340);

---

Assay: Oral dose PK of NPT-2042 in rat
Type: in vivo
Settings: in vivo; NPT-2042, rat, oral 30 mg/kg; read-out: t½ (converted)
RESULT_TYPE: half-life (h)

INSERT INTO assay_data (compound_structure_string, observed_result) VALUES
  ('CCCCNc1cc(C(=O)N(Cc2ccccc2)Cc2ccccc2)cc(S(N)(=O)=O)c1Oc1ccccc1', 2.61);

---

Experiment: Oral dose PK of NPT2042 in dog (AUC for absolute bioavailability)
Type: in vivo
Details: dog, in vivo, po, 30 mg/kg, NPT2042, dog, oral 30 mg/kg; animals D0001, D0601, Mean; read-out: CL/F (converted)
RESULT_TYPE: CL/F (mL/min/kg)

INSERT INTO results (compound_structure_string, observed_result) VALUES
  ('CCCCNc1cc(C(=O)N(Cc2ccccc2)Cc2ccccc2)cc(S(N)(=O)=O)c1Oc1ccccc1', 367);

---

Test: IV bolus PK of NPT-2042 in dog
Type: in vivo
Settings: dog, plasma, iv, 10 mg/kg, NPT-2042, dog, IV bolus 10 mg/kg; animals 1201A, 1501A, Mean; read-out: Tmax
RESULT_TYPE: Tmax (min)

INSERT INTO assay_data (compound_structure_string, endpoint_unit, observed_result) VALUES
  ('CCCCNc1cc(C(=O)N(Cc2ccccc2)Cc2ccccc2)cc(S(N)(=O)=O)c1Oc1ccccc1', 'min', 4.8);

---

Assay: IV bolus PK of NPT-2042 in rat
Format: in vivo
Details: plasma; NPT-2042, rat, IV bolus 10 mg/kg
RESULT_TYPE: AUC(0-inf)

INSERT INTO assay_data (compound, result_type, observed_result) VALUES
  ('CCCCNc1cc(C(=O)N(Cc2ccccc2)Cc2ccccc2)cc(S(N)(=O)=O)c1Oc1ccccc1 [NPT-2042]', 'AUC(0-inf)', '3470 ng·h/mL');
